Target or test system: hAT1R (Homo sapiens, UniProt P30556)
Assay text: FLIPR calcium flux assay, Part I: agonist activity
Assay type: cell-based
Measurement context: ChanTest hAT1R stable cells; % MPE, percent of the maximal possible effect; read-out: hAT1R Agonist Efficacy Agonist (%) Ave
Residues, ends and D or L forms follow the SMILES beside them.
Below: a set of entries, each annotated with reported Emax.

Compound	Emax, %
CNCC(=O)N[C@@H](CCCNC(=N)N)C(=O)N[C@H](C(=O)N[C@@H](Cc1ccc(O)cc1)C(=O)N[C@H](C(=O)N[C@@H](Cc1c[nH]cn1)C(=O)N1CCC[C@H]1C(=O)N[C@H](Cc1ccccc1C)C(=O)O)C1CCCCC1)C(C)C [Compound 27] (HELM PEPTIDE1{[Sar].R.V.Y.[O=C([C@@H](N[*:1])C1CCCCC1)[*:2]].H.P.[Cc1ccccc1C[C@@H](N[*:1])C(=O)O]}$$$$V2.0)	8
CNCC(=O)N[C@@H](CCCNC(=N)N)C(=O)N[C@H](C(=O)N[C@@H](Cc1ccc(O)cc1)C(=O)N[C@@H](CCCCN)C(=O)N[C@@H](Cc1c[nH]cn1)C(=O)N1CCC[C@H]1C(=O)N[C@H](Cc1cccc2ccccc12)C(=O)O)C(C)C [Compound 2, Sar-Arg-Val-Tyr-Lys-His-Pro-(D-1Nal)-OH] (HELM PEPTIDE1{[Sar].R.V.Y.K.H.P.[O=C(O)[C@@H](Cc1cccc2ccccc12)N[*:1]]}$$$$V2.0)	1
CC(C)[C@H](NC(=O)[C@H](CCCNC(=N)N)NC(=O)CNC[C@H](O)[C@@H](O)[C@H](O)[C@H](O)CO)C(=O)N[C@@H](Cc1ccc(O)cc1)C(=O)N[C@H](C(=O)N[C@@H](Cc1c[nH]cn1)C(=O)N1CCC[C@H]1C(=O)N[C@H](Cc1cccc2ccccc12)C(=O)O)C(C)C [Compound 37, Glac-Arg-Val-Tyr-Val-His-Pro-(D-1Nal)-OH] (HELM PEPTIDE1{[O=C(CNC[C@H](O)[C@@H](O)[C@H](O)[C@H](O)CO)[*:2]].R.V.Y.V.H.P.[O=C(O)[C@@H](Cc1cccc2ccccc12)N[*:1]]}$$$$V2.0)	7

###

Target or test system: UniProtKB P30556
Sequence (P30556 1-359): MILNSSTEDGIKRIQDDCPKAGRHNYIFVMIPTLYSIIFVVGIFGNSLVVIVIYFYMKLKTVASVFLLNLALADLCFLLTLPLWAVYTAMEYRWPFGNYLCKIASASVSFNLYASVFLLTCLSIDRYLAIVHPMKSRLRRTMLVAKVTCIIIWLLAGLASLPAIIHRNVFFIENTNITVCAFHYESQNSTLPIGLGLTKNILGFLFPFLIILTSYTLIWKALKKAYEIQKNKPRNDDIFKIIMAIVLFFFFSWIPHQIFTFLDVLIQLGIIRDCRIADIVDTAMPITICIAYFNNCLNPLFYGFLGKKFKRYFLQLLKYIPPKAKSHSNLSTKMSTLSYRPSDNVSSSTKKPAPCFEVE
Assay text: FLIPR calcium flux assay, Part I: agonist activity
Assay type: cell-based
Measurement context: ChanTest hAT1R stable cells; % MPE, percent of the maximal possible effect; read-out: hAT1R Agonist Efficacy Agonist (%) Ave
Residues, ends and D or L forms follow the SMILES beside them.

Compound	Target or test system	Emax [%]
CNCC(=O)N[C@@H](CCCNC(=N)N)C(=O)N[C@H](C(=O)N[C@@H](Cc1ccc(O)cc1)C(=O)N[C@H](C(=O)N[C@@H](Cc1c[nH]cn1)C(=O)N1CCC[C@H]1C(=O)N[C@H](Cc1ccccc1C)C(=O)O)C(C)C)C(C)C [Compound 9] (HELM PEPTIDE1{[Sar].R.V.Y.V.H.P.[Cc1ccccc1C[C@@H](N[*:1])C(=O)O]}$$$$V2.0)	UniProtKB P30556	4
CCCCC(=O)N(Cc1ccc(-c2ccccc2-c2nnn[nH]2)cc1)[C@H](C(=O)O)C(C)C [Ref. Cpd. 4, Valsartan, reference compound]	UniProtKB P30556	0.7
CNCC(=O)N[C@@H](CCCNC(=N)N)C(=O)N[C@H](C(=O)N[C@@H](Cc1ccc(O)cc1)C(=O)N[C@@H](Cc1ccccc1)C(=O)N[C@@H](Cc1c[nH]cn1)C(=O)N1CCC[C@H]1C(=O)N[C@H](Cc1cccc2ccccc12)C(=O)O)C(C)C [Compound 16, Sar-Arg-Val-Tyr-Phe-His-Pro-(D-1Nal)-OH] (HELM PEPTIDE1{[Sar].R.V.Y.F.H.P.[O=C(O)[C@@H](Cc1cccc2ccccc12)N[*:1]]}$$$$V2.0)	UniProtKB P30556	6
CNCC(=O)N[C@@H](CCCNC(=N)N)C(=O)N[C@H](C(=O)N[C@@H](Cc1ccc(O)cc1)C(=O)N[C@H](C(=O)N[C@@H](Cc1c[nH]cn1)C(=O)N1CCC[C@H]1C(=O)N[C@H](Cc1ccccc1Cl)C(=O)O)C(C)C)C(C)C [Compound 4] (HELM PEPTIDE1{[Sar].R.V.Y.V.H.P.[O=C(O)[C@@H](Cc1ccccc1Cl)N[*:1]]}$$$$V2.0)	UniProtKB P30556	6
CNCC(=O)N[C@@H](CCCNC(=N)N)C(=O)N[C@H](C(=O)N[C@@H](Cc1ccc(O)cc1)C(=O)N[C@@H](Cc1cscn1)C(=O)N[C@@H](Cc1c[nH]cn1)C(=O)N1CCC[C@H]1C(=O)N[C@H](Cc1ccccc1Cl)C(=O)O)C(C)C [Compound 24] (HELM PEPTIDE1{[Sar].R.V.Y.[O=C([C@H](Cc1cscn1)N[*:1])[*:2]].H.P.[O=C(O)[C@@H](Cc1ccccc1Cl)N[*:1]]}$$$$V2.0)	UniProtKB P30556	4
CNCC(=O)N[C@@H](CCCNC(=N)N)C(=O)N[C@H](C(=O)N[C@@H](Cc1ccc(O)cc1)C(=O)N[C@@H](Cc1ccc(O)cc1)C(=O)N[C@@H](Cc1c[nH]cn1)C(=O)N1CCC[C@H]1C(=O)N[C@H](Cc1cccc2ccccc12)C(=O)O)C(C)C	UniProtKB P30556	5
